Assay name: chemical genetic growth profiling, strain panel (AID 1159580);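 note: tested at 20 µM; growth read once vehicle control cultures reached saturation at 30 °C; 1 = growth at the plate median or of vehicle wells; lower values mean less growth of the strain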
Experimental parameters: S. cerevisiae deletion strains, growth OD, locus YLR330W, strain CHS5, stronger effect = lower value
Screen size: about 5,500 compounds; about 2,000 (36%) were called active. Another 18% or so got no clear call; they are omitted. Some of the results follow.
Measure name: normalized growth

Study these solved cases before continuing.
compound="CC(=O)O[C@@H]1CC[C@@]2(C)C(CC[C@]3(C)C2CC=C2C4CC(C)(C)CC[C@]4(C(=O)O)CC[C@]23C)C1(C)C (stereo not given in full)" measure_name="normalized growth" reported_value="1 (inactive)"
compound=COC(=O)Nc1nc2ccc(C(=O)c3ccccc3)cc2[nH]1 measure_name="normalized growth" reported_value="1 (inactive)"

Request: Indicate the recorded normalized growth value for this compound: C#C[C@]1(O)CCC2C3CCC4=CC(=O)CC[C@@H]4C3CC[C@@]21CC (stereo not given in full)
Response: 0.991 (inactive)

Request: Indicate the recorded normalized growth value for this compound: C#C[C@]1(OC(C)=O)CCC2C3CCC4=CC(=O)CC[C@@H]4C3CC[C@@]21C (stereo not given in full)
Response: 0.978 (inactive)

Request: Indicate the recorded normalized growth value for this compound: `O=c1oc2cc(O)ccc2s1`
Response: 0.982 (inactive)

Request: Indicate the recorded normalized growth value for this compound: CC(=O)Nc1ccc(OCC(O)CNC(C)C)cc1 (stereo not given)
Response: 1.01 (inactive)

Request: Indicate the recorded normalized growth value for this compound: Fc1ccc(C(c2ccccc2)(c2ccccc2F)n2ccnc2)cc1 (stereo not given)
Response: 0.0657 (active)

Request: Indicate the recorded normalized growth value for this compound: CC(C)=CCCC1(C)C=Cc2c(O)c3c(c(CC=C(C)C)c2O1)OC12C(=CCCC1C(C)(C)O[C@@]2(C/C=C(\C)C(=O)O)C(=O)O)C3=O (stereo not given in full)
Response: 0.845 (active)

Request: Indicate the recorded normalized growth value for this compound: `Cc1cc(O)c2c(c1)Cc1cccc(O)c1C2=O`
Response: 0.957 (inactive)

Request: Indicate the recorded normalized growth value for this compound: CCC(C)C(=O)O[C@H]1[C@H](O)C2C(CN3CC(C)CCC3[C@@]2(C)O)C2C[C@]34O[C@]5(O)C(OC(=O)C(C)(O)CC)CC[C@@]3(C)C5C(OC(C)=O)[C@@H](OC(C)=O)C4[C@@]21O (stereo not given in full)
Response: 1.01 (inactive)

Origin of the recorded values: PubChem BioAssay AID1159580
